All figures here come from patent US20240343803A1.

# assayed_target: T1, human PVRIG-his (AcroBiosystems, Cat NO. PVG-H52H4) (human, UniProt Q6DKI7 41-171, limits assumed)
# T1 construct: also called human PVRIG protein
# T1 sequence (looked up): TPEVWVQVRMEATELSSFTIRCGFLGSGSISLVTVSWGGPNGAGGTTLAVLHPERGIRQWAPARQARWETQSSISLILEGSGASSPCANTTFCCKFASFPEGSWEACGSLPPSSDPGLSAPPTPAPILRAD
# procedure_summary: SPR (BIAcore), antibody captured on Protein A chip, human PVRIG-His analyte
reported_metric: koff (s⁻¹)

- binder: "PVRIG-A11 (Fc fusion, heavy chain antibody VHH-hinge-CH2-CH3, human IgG1 constant part; not shown: human IgG1 hinge-CH2-CH3) QLQLVESGGGLVQPGGSLRLSCAASGFTDDYYAIGWFRQAPGKEREGVSCISGSGGSTNYEDSVKGRFAISRDNAKNMVYLQMNDLKPEDTAVYYCAADPFWSAPCTGHNDRYFDVWGQGTLVTVSS"
  reported_metric: "koff"
  measured_value: 0.00338
- binder: "PVRIG-A113 (Fc fusion, heavy chain antibody VHH-hinge-CH2-CH3, human IgG1 constant part; not shown: human IgG1 hinge-CH2-CH3) QLQLVESGGGLVQSGGSLRLSCAASGRTRSMYVMGWFRQAPGKEREFVGRIKWSGDTTYTSYADFVKGRFTLYGNQARNTVYLQMNSLKPEDTAVYYCAALPSDYDYRAASYGVDYWGKGTLVTVSS"
  reported_metric: "koff"
  measured_value: "8.96e-05"
- binder: "PVRIG-A15 (Fc fusion, heavy chain antibody VHH-hinge-CH2-CH3, human IgG1 constant part; not shown: human IgG1 hinge-CH2-CH3) QVQLVESGGGLVQAGGSLRLSCVASGRTFSANTMAWFRQAPGKEREFVAYTRWTDDNTDYASYADFVKGRFTAFRDNTRNTMYLQMNRLRPEDTAVYYCAAATTRGTYYSAGDYNSWGQGTQVTVSS"
  reported_metric: "koff"
  measured_value: "2.31e-05"
- binder: "PVRIG-A60 (Fc fusion, heavy chain antibody VHH-hinge-CH2-CH3, human IgG1 constant part; not shown: human IgG1 hinge-CH2-CH3) QVQLVESGGGLVQSGGSLRLSCAASGRTRSMYVMGWFRQAPGKEREFVGRIKWSGDTTYTSYADFVKGRFTLYGNQARNTVYLQMNSLKPEDAAVYYCNLRRLDGVNYWGKGTLVTVSS"
  reported_metric: "koff"
  measured_value: "3.97e-05"
